biological target: FGFR2 (Homo sapiens); construct: purchased Carna; assay: FGFR biochemical assay (LanthaScreen TR-FRET), FGFR2; conditions: enzyme pre-incubation 60 min; ATP 22 μM; FGFR2 0.01 nM
Sequence (P21802 22-821): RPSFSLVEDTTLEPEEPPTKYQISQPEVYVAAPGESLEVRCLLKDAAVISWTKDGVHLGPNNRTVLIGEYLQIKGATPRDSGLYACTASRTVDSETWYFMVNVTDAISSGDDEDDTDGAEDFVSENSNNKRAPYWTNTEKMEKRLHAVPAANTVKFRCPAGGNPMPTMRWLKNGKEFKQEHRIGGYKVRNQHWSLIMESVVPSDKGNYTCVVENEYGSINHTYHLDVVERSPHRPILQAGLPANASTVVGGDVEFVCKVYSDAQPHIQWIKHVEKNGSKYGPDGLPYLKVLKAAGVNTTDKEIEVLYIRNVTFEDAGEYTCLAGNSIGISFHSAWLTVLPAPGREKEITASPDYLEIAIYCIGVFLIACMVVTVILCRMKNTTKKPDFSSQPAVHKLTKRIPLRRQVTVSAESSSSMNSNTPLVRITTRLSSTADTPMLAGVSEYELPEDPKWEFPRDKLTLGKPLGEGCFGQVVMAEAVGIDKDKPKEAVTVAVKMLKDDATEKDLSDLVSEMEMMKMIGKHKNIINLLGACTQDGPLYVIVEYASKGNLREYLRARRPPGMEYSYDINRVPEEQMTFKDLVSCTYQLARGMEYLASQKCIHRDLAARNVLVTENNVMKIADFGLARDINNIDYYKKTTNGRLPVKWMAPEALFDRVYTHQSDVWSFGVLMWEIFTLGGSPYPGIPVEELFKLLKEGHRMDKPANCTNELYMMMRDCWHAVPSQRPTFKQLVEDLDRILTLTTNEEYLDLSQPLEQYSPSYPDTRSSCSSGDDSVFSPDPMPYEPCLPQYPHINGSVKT
pIC50: −log10 of the molar value.
The molecules listed here are annotated with their pIC50.

Here's what some known entries look like.
INSERT INTO results (entrysmiles, assayresult) VALUES
  ('Cc1cnc2c(-c3ccc(NC(=O)/C=C/CN4CC(O)C4)cc3)c(-c3ccc(Oc4nccc(C)n4)c(F)c3)c(C(N)=O)n2c1', '> 8.00'),
  ('C=C(F)C(=O)Nc1ccc(-c2c(-c3ccc(Oc4nccc(C)n4)c(F)c3)c(C(N)=O)n3ccccc23)cc1', '> 8.00'),
  ('C=C(F)C(=O)Nc1ccc(-c2c(-c3ccc(Oc4nccc(C)n4)c(F)c3)c(C(N)=O)n3cc(C#CC)cnc23)cc1', '7.00 to 8.00'),
  ('Cc1cnc2c(-c3ccc(NC(=O)/C(F)=C/CN(C)C)cc3)c(-c3ccc(Oc4nccc(C)n4)c(F)c3)c(C(N)=O)n2c1', '7.00 to 8.00'),
  ('C=C(C)C(=O)Nc1ccc(-c2c(-c3ccc(Oc4nccc(C)n4)c(F)c3)c(C(N)=O)n3cc(C)cnc23)c(F)c1', '7.00 to 8.00');

Which pIC50 reading was recorded for the molecule C=C(F)C(=O)Nc1ccc(-c2c(-c3ccc(Oc4nccc(C)n4)c(F)c3)c(C(N)=O)n3cc(N4CCOCC4)cnc23)cc1 ? > 8.00

Lookup CC#CC(=O)Nc1ccc(-c2c(-c3ccc(Oc4nccc(C)n4)c(F)c3)c(C(N)=O)n3cc(C)cnc23)cc1 > 8.00

---

The compounds listed here are annotated with their pIC50.
target: FGFR1 (Homo sapiens); construct: purchased Carna; test: FGFR biochemical assay (LanthaScreen TR-FRET), FGFR1; conditions: enzyme pre-incubation 60 min; ATP 28 μM; FGFR1 0.01 nM
Sequence (P11362 22-822): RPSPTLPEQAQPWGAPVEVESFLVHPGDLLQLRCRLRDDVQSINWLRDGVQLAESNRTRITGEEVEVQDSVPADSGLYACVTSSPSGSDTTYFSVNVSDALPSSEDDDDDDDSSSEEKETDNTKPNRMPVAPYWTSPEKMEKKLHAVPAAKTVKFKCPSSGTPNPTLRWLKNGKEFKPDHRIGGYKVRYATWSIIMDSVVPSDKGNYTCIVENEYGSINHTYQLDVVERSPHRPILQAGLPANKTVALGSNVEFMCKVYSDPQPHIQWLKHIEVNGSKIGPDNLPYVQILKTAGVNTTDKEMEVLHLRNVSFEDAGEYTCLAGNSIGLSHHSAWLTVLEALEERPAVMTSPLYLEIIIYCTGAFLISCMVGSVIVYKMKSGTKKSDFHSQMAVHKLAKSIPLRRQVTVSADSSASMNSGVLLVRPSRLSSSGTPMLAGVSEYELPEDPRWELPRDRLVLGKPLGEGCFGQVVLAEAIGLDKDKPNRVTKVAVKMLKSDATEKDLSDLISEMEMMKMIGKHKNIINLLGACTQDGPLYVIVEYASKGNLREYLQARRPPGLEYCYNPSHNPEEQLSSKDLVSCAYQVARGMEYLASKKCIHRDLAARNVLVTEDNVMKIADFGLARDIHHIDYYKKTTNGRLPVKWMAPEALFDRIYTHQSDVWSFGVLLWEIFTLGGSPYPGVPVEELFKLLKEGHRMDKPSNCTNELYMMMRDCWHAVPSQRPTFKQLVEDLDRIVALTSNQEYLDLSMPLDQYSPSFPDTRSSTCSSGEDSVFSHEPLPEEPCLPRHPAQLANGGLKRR
pIC50: −log10 of the molar value.

Here's what some known entries look like.
INSERT INTO measurements (entrysmiles, targetorsystem, metricname, assayresult) VALUES
  ('C=C(F)C(=O)Nc1ccc(-c2c(-c3ccc(Oc4nccc(C)n4)cc3)c(C(N)=O)n3cc(N4CCN(C)CC4)cnc23)cc1', 'FGFR1 (Homo sapiens)', 'pIC50', '6.00 to 7.00'),
  ('C=C(F)C(=O)Nc1ccc(-c2c(-c3ccc(Oc4nccc(C)n4)cc3Cl)c(C(N)=O)n3cc(C)cnc23)cc1', 'FGFR1 (Homo sapiens)', 'pIC50', '< 6.00'),
  ('C=C(F)C(=O)Nc1ccc(-c2c(-c3ccc(Oc4nccc(C)n4)c(F)c3)c(C(N)=O)n3cc(Cl)cnc23)cc1', 'FGFR1 (Homo sapiens)', 'pIC50', '6.00 to 7.00'),
  ('C=C(F)C(=O)Nc1ccc(-c2c(-c3ccc(Oc4nccc(C)n4)c(F)c3)c(C(N)=O)n3cc(C)cnc23)c(F)c1', 'FGFR1 (Homo sapiens)', 'pIC50', '7.00 to 8.00');

Provide the documented pIC50 with FGFR1 (Homo sapiens) as the system for C=C(F)C(=O)Nc1ccc(-c2c(-c3ccc(Oc4nccc(C)n4)c(F)c3)c(C(N)=O)n3cc(C#CC)cnc23)cc1 6.00 to 7.00

Lookup Cc1cnc2c(-c3ccc(NC(=O)/C=C/CNC4COC4)cc3)c(-c3ccc(Oc4nccc(C)n4)c(F)c3)c(C(N)=O)n2c1 6.00 to 7.00

Lookup C=C(F)C(=O)Nc1ccc(-c2c(-c3ccc(Oc4nccc(C)n4)cc3)c(C(N)=O)n3cc(C)cnc23)cc1 6.00 to 7.00

Lookup Cc1cnc2c(-c3ccc(NC(=O)/C=C/CN4CC(O)C4)cc3)c(-c3ccc(Oc4nccc(C)n4)c(F)c3)c(C(N)=O)n2c1 7.00 to 8.00

Lookup C=C(F)C(=O)Nc1ccc(-c2c(-c3ccc(Oc4nccc(C)n4)c(F)c3)c(C(N)=O)n3ccc(C)nc23)cc1 6.00 to 7.00

Lookup C=C(C)C(=O)Nc1ccc(-c2c(-c3ccc(Oc4nccc(C)n4)c(F)c3)c(C(N)=O)n3cc(C)cnc23)c(F)c1 < 6.00

Lookup C=C(F)C(=O)N1CCc2cc(-c3c(-c4ccc(Oc5nccc(C)n5)c(F)c4)c(C(N)=O)n4cc(C)cnc34)ccc21 6.00 to 7.00

Lookup CC#CC(=O)Nc1ccc(-c2c(-c3ccc(Oc4nccc(C)n4)c(F)c3)c(C(N)=O)n3cc(C)cnc23)cc1 6.00 to 7.00

Lookup C=C(F)C(=O)Nc1ccc(-c2c(-c3ccc(Oc4nccc(C)n4)c(F)c3)c(C(N)=O)n3ccccc23)cc1 6.00 to 7.00

Lookup Cc1cnc2c(-c3ccc(NC(=O)/C(F)=C/CN(C)C)cc3)c(-c3ccc(Oc4nccc(C)n4)c(F)c3)c(C(N)=O)n2c1 < 6.00
